Molecular target: σ1 receptor (Cavia porcellus)
Assay: biochemical

>  <molecule>
COc1ccc(C)cc1NC(=O)O[C@H]1C[C@H]2CCC[C@@H](C1)N2Cc1ccc(N(C)C)cc1

>  <Ki (nM)>
5570

$$$$
>  <molecule>
COc1ccc(C)cc1NC(=O)O[C@H]1C[C@H]2CCC[C@@H](C1)N2CCCCCCNCc1cccc(I)c1

>  <Ki (nM)>
0.56

$$$$
>  <molecule>
COc1ccc(C)cc1NC(=O)OC1CC2CCCC(C1)N2CCCCCCNS(=O)(=O)c1cccc2c(N(C)C)cccc12 (stereo not shown)

>  <Ki (nM)>
12600

$$$$
>  <molecule>
COc1ccc(C)cc1NC(=O)OC1CC2CCCC(C1)N2CCCCCCNCc1cccc(F)c1 (stereo not shown)

>  <Ki (nM)>
0.46

$$$$

----------
Target: σ2 receptor (Rattus norvegicus, UniProt Q5U3Y7)
Construct: from tissue; host or cells: rat liver membrane homogenates
Sequence (Q5U3Y7 whole entry): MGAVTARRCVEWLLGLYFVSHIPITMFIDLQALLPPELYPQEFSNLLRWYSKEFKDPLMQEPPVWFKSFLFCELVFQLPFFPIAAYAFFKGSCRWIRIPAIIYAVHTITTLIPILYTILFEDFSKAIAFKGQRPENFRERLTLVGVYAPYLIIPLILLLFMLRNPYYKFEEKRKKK
Assay: σ2 receptor binding assay, [3H]DTG or [3H]RHM-1
Conditions: Ki for σ1/Ki for σ2
Structures can show the parent of a compound that is named as a salt.
Please map values of σ1/σ2 Ratio to classes as shown: Low = under 0.8, Medium = from 0.8 up to 40, High = 40 and over

>  <molecule>
COc1ccc(C)cc1NC(=O)OC1CC2CCCC(C1)N2CCCCCCNC(=O)c1ccc(Br)cc1 (stereo not shown) [Compound 4b]

>  <qualitative_label>
Medium

$$$$
>  <molecule>
O[C@@H](CN1C2CCC1CC(c1ccccc1)C2)c1cccc(Br)c1 (stereo partly shown) [RHM-I-138]

>  <qualitative_label>
High

$$$$
>  <molecule>
COc1ccc(C)cc1NC(=O)OC1CC2CCCC(C1)N2CCCCNCc1ccc(I)cc1 (stereo not shown) [Compound 2f]

>  <qualitative_label>
Low

$$$$
>  <molecule>
COc1ccc(C)cc1NC(=O)O[C@H]1C[C@H]2CCC[C@@H](C1)N2CCCCCCNCc1cccc(I)c1 [Compound 3c]

>  <qualitative_label>
Low

$$$$
>  <molecule>
COc1ccc(C)cc1NC(=O)OC1CC2CCCC(C1)N2CCCCN (stereo not shown) [Compound 1a, hydrochloride]

>  <qualitative_label>
High

$$$$
>  <molecule>
COc1ccc(C)cc1NC(=O)OC1CC2CCCC(C1)N2CCCCNCc1cccc(Br)c1 (stereo not shown) [Compound 2a]

>  <qualitative_label>
Medium

$$$$
>  <molecule>
COc1ccc(C)cc1NC(=O)OC1CC2CCCC(C1)N2CCCCNCc1ccc(Br)cc1 (stereo not shown) [Compound 2d]

>  <qualitative_label>
Low

$$$$
>  <molecule>
COc1ccc(C)cc1NC(=O)O[C@H]1C[C@H]2CCC[C@@H](C1)N2CCCCCCN.Cl [Compound 1b]

>  <qualitative_label>
High

$$$$
>  <molecule>
COc1ccc(C)cc1NC(=O)O[C@H]1C[C@H]2CCC[C@@H](C1)N2Cc1ccc(N(C)C)cc1 [WC-II-26]

>  <qualitative_label>
High

$$$$
>  <molecule>
COc1ccc(C)cc1NC(=O)OC1CC2CCCC(C1)N2CCCCCCNCc1ccc(I)cc1 (stereo not shown) [Compound 3f]

>  <qualitative_label>
Low

$$$$
>  <molecule>
COc1ccc(C)cc1NC(=O)OC1C[C@H]2CCC[C@@H](C1)N2CCCCCCN (stereo partly shown) [SV119]

>  <qualitative_label>
High

$$$$
>  <molecule>
COc1ccc(C)cc1NC(=O)OC1CC2CCCC(C1)N2CCCCNCc1ccc(F)cc1 (stereo not shown) [Compound 2e]

>  <qualitative_label>
Low

$$$$
>  <molecule>
COc1ccc(C)cc1NC(=O)OC1CC2CCCC(C1)N2CCCCCCNCc1cccc(Br)c1 (stereo not shown) [Compound 3a]

>  <qualitative_label>
Medium

$$$$

----------
Target: σ2 receptor (Rattus norvegicus)
Construct: from tissue; host or cells: rat liver membrane homogenates
Assay: σ2 receptor binding assay, [3H]DTG or [3H]RHM-1
Details: read-out: Ki σ2
pKi: −log10 of the molar value.
A collection of compounds and their measured pKi

>  <compound>
COc1ccc(C)cc1NC(=O)OC1CC2CCCC(C1)N2CCCCCCNS(=O)(=O)c1cccc2c(N(C)C)cccc12 (centres unmarked)

>  <pKi>
6.83

$$$$
>  <compound>
COc1ccc(C)cc1NC(=O)OC1CC2CCCC(C1)N2CCCCCCNC(=O)c1ccc(Br)cc1 (centres unmarked)

>  <pKi>
6.14

$$$$

----------
Target: UniProtKB Q60492
Assay: biochemical
pKi: −log10 of the molar value.

>  <compound>
COc1ccc(C)cc1NC(=O)OC1CC2CCCC(C1)N2CCCCCCNCc1ccc(Br)cc1 (stereo not shown) [Compound 3d]

>  <pKi>
7.36

$$$$
>  <compound>
COc1ccc(C)cc1NC(=O)OC1CC2CCCC(C1)N2CCCCNCc1ccc(Br)cc1 (stereo not shown) [Compound 2d]

>  <pKi>
8.77

$$$$
>  <compound>
COc1ccc(C)cc1NC(=O)OC1CC2CCCC(C1)N2CCCCNCc1ccc(I)cc1 (stereo not shown) [Compound 2f]

>  <pKi>
9.47

$$$$
>  <compound>
COc1ccc(C)cc1NC(=O)OC1CC2CCCC(C1)N2CCCCNCc1cccc(Br)c1 (stereo not shown) [Compound 2a]

>  <pKi>
7.18

$$$$

----------
Measured EC50 of individual entries
Tested on: EMT-6 cells
Assay: Cytotoxicity assay (MTS) in EMT-6 cells
Format: cell-based, mouse
Settings: Mus musculus, EMT6, 48 h, read-out: EC50 (μM, 48 hours), EMT-6, MTS assay, 48 hours

>  <compound>
COc1ccc(C)cc1NC(=O)OC1CC2CCCC(C1)N2CCCCCCN (stereo not drawn)

>  <unit_name>
µM

>  <EC50>
11

$$$$
>  <compound>
O[C@@H](CN1C2CCC1CC(c1ccccc1)C2)c1cccc(Br)c1 (stereo partly drawn)

>  <unit_name>
µM

>  <EC50>
16

$$$$
>  <compound>
COc1ccc(C)cc1NC(=O)O[C@H]1C[C@H]2CCC[C@@H](C1)N2Cc1ccc(N(C)C)cc1

>  <unit_name>
µM

>  <EC50>
12.5

$$$$

----------
List of pKi values.
Molecular target: σ1 receptor (Cavia porcellus, UniProt Q60492)
Sequence (Q60492 whole entry): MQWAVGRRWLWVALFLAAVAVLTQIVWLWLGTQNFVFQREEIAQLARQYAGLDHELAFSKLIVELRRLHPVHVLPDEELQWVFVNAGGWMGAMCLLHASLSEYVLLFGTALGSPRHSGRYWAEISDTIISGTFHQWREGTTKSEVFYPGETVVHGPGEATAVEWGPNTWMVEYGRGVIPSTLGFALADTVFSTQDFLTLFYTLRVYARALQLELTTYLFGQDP
pKi: −log10 of the molar value. Structures can show the parent of a compound that is named as a salt.
observation_type: pKi

>  <compound>
COc1ccc(C)cc1NC(=O)O[C@H]1C[C@H]2CCC[C@@H](C1)N2CCCCCCN.Cl [Compound 1b, hydrochloride]

>  <recorded_result>
5.85

$$$$
>  <compound>
COc1ccc(C)cc1NC(=O)OC1C[C@H]2CCC[C@@H](C1)N2CCCCCCN (stereo partly shown) [SV119]

>  <recorded_result>
5.85

$$$$
>  <compound>
COc1ccc(C)cc1NC(=O)OC1CC2CCCC(C1)N2CCCCCCCCCCN (stereo not shown) [Compound 1c, hydrochloride]

>  <recorded_result>
6.87

$$$$
>  <compound>
O[C@@H](CN1C2CCC1CC(c1ccccc1)C2)c1cccc(Br)c1 (stereo partly shown) [RHM-I-138]

>  <recorded_result>
6.26

$$$$

----------
Target: σ1 receptor (Cavia porcellus)
Assay: biochemical
Where a name gives a salt, the structure may show the parent alone.
observation_type: Ki (nM)

>  <compound>
COc1ccc(C)cc1NC(=O)OC1CC2CCCC(C1)N2CCCCNCc1ccc(F)cc1 (stereo not drawn) [Compound 2e]

>  <measured_on>
σ1 receptor (Cavia porcellus)

>  <recorded_result>
22.1

$$$$
>  <compound>
COc1ccc(C)cc1NC(=O)OC1CC2CCCC(C1)N2CCCCCCNC(=O)c1ccc(Cl)cc1 (stereo not drawn) [Compound 4a]

>  <measured_on>
σ1 receptor (Cavia porcellus)

>  <recorded_result>
1400

$$$$
>  <compound>
COc1ccc(C)cc1NC(=O)OC1CC2CCCC(C1)N2CCCCCCNCc1ccc(I)cc1 (stereo not drawn) [Compound 3f]

>  <measured_on>
σ1 receptor (Cavia porcellus)

>  <recorded_result>
0.65

$$$$
>  <compound>
COc1ccc(C)cc1NC(=O)OC1CC2CCCC(C1)N2CCCCNCc1cccc(F)c1 (stereo not drawn) [Compound 2b]

>  <measured_on>
σ1 receptor (Cavia porcellus)

>  <recorded_result>
0.3

$$$$
>  <compound>
COc1ccc(C)cc1NC(=O)O[C@H]1C[C@H]2CCC[C@@H](C1)N2CCCCNCc1cccc(I)c1 [Compound 2c]

>  <measured_on>
σ1 receptor (Cavia porcellus)

>  <recorded_result>
63.9

$$$$
>  <compound>
COc1ccc(C)cc1NC(=O)OC1CC2CCCC(C1)N2CCCCCCNC(=O)c1ccc(Br)cc1 (stereo not drawn) [Compound 4b]

>  <measured_on>
σ1 receptor (Cavia porcellus)

>  <recorded_result>
2040

$$$$
>  <compound>
COc1ccc(C)cc1NC(=O)OC1CC2CCCC(C1)N2CCCCCCNCc1cccc(Br)c1 (stereo not drawn) [Compound 3a]

>  <measured_on>
σ1 receptor (Cavia porcellus)

>  <recorded_result>
112

$$$$
>  <compound>
COc1ccc(C)cc1NC(=O)OC1CC2CCCC(C1)N2CCCCN (stereo not drawn) [Compound 1a, hydrochloride]

>  <measured_on>
σ1 receptor (Cavia porcellus)

>  <recorded_result>
2490

$$$$
>  <compound>
COc1ccc(C)cc1NC(=O)OC1CC2CCCC(C1)N2CCCCCCNCc1ccc(F)cc1 (stereo not drawn) [Compound 3e]

>  <measured_on>
σ1 receptor (Cavia porcellus)

>  <recorded_result>
1

$$$$
